Attribution: patent US20120101110A1

experimental-target: human orexin 1 receptors (Homo sapiens, UniProt O43613)
Sequence (O43613 1-425): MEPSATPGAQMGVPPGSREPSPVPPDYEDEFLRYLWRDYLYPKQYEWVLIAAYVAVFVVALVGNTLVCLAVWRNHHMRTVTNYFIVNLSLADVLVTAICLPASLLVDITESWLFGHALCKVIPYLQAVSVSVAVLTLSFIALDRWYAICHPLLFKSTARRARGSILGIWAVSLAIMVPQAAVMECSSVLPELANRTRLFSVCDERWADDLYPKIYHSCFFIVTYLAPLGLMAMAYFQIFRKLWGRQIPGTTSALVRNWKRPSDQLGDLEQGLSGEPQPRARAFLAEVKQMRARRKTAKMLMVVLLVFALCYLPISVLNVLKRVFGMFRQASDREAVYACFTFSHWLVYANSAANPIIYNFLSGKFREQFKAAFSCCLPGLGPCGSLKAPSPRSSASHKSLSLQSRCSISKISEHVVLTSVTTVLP
assay-details: Calcium accumulation in cells (FLIPR), hOx1R
Give pKi for every item shown.
Quick note: pKi means taking -log10 of the concentration in moles per liter.

So, `Cc1ccc2[nH]cc(CN3CCCC4(CCN(c5nc(C)cc(C)n5)CC4)C3=O)c2c1` ? Its pKi was 6.53

Value of measured pKi for the entry `COc1cc(C)nc(N2CCC3(CCCN(Cc4n[nH]c5ccccc45)C3=O)CC2)n1` : 6.59

pKi measured on `Cc1cc(C#N)cc(N2CCC3(CCCN(Cc4cccc(-c5ncc(C)o5)c4)C3=O)CC2)n1` = 6.45

Quick note, pKi for `Cc1cc(C#N)cc(N2CCC3(CCCN(Cc4c[nH]c5ccccc45)C3=O)CC2)n1` landed at 6.32

Lab note: measured pKi of `COCc1cccc(-c2nn(C)nc2CN2CCCC3(CCN(c4nc(C)cc(C)n4)CC3)C2=O)c1` was 6.06

# pKi (compound: `Cc1cnc(-c2cccc(CN3CCCC4(CCN(c5cc(C#N)ccn5)CC4)C3=O)c2)o1` ) is 6.62

pKi for `Cc1cc(C#N)cc(N2CCC3(CCCN(Cc4cccc(-c5ncccn5)c4)C3=O)CC2)n1` is 5.96

Sure, the documented pKi for `Cc1cc(C)nc(N2CCC3(CCCN(Cc4nc(C)oc4-c4ccccc4)C3=O)CC2)n1` is 6.29
